Test system: T1, UNK ZnF1-3 (human, UniProt Q9C0B0 31-174)
T1 sequence: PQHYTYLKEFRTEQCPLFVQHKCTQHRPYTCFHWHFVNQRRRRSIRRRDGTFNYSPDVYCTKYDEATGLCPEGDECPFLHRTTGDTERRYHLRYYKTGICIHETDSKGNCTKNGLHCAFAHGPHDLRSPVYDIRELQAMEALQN
Protocol summary: nsRBNS (natural sequence RNA bind-n-seq); RBNS binding buffer (assumed for nsRBNS): 25 mM Tris pH 7.5, 150 mM KCl, 3 mM MgCl2, 0.01% Triton X-100, 500 ug/ml BSA, 20 U/ml SUPERase-In, 4 C; UNK is unkempt and MSI1 is Musashi-1; names of the RNAs are library labels; protein concentration not given here; high values mean tight binding
Over roughly 24,000 sequences, “enrichment r” has its median near 0.99; the highest 2% begin near 3.7. Only a selection was taken, and the highest values are over-represented in it overall.
Listed binders paired with reported binding signal
Quantity measured: binding signal (enrichment R)

binder="chr12:8945443:8945444:+_ENSMUSG00000020585_ENSMUST00000020909|mus_mus|motif|central (ssRNA) RNA: GGGAGUUCUACAGUCCGACGAUCUGGAAACGUACAAAUGAGAAGCAUGCAACCAUCAUCUUCCACAGUCAAGUCAAACUGCGGUUUCUCUCUCUCUCCUGUUUCAUAGAGCUGGAAACUGCAGGUGUUAUACCCAACCUAUUCCAACAGAGGAUUGAGCAUCA" reported_result=0.736
binder="118238769_118243032_844_CDS_ENSMUSG00000005102_ENSMUST00000005233|mouse|control|control (ssRNA) RNA: GGGAGUUCUACAGUCCGACGAUCAGAGAAAUGGAGGAUGUCACACGAGCCAGGAGAGGGUUCACCACUACACACAGAAUACUGACGUUCUCGCCUGGACCUUCCUGAGGAGUAUGUCCGGGCUUUACCAUUUCCUACAAAGUCCAACAGAGGAUUGAGCAUCA" reported_result=1.63
binder="chr9:95013113:95013114:-_ENSG00000196305_ENST00000443024|hu_hu|hu_hu_hu_mus_False|28_58 (ssRNA) RNA: GGGAGUUCUACAGUCCGACGAUCCUCAGUCAGAAAGGGCGUGUAAGGGGCCAUCAGUCUGCACAGAGAAAGCAGGACACUAAACAAUGUCUCCAGAGCCAUGACACAAUCCUCCAUCCCACUCUCACCCUUUAACCUCCUCCUCAACAGAGGAUUGAGCAUCA" reported_result=1.38

Numbers sourced from paper PMC12136788.
